Data origin, for the record: patent US20240400546A1

Some compounds, each annotated with its measured IC50.
Target: SCD1 (Homo sapiens)
Construct: host or cells: S. cerevisiae ole1Δ strain, plasmid pRS316 with TDH3 promoter and CYC1 terminator
Sequence (O00767 1-359): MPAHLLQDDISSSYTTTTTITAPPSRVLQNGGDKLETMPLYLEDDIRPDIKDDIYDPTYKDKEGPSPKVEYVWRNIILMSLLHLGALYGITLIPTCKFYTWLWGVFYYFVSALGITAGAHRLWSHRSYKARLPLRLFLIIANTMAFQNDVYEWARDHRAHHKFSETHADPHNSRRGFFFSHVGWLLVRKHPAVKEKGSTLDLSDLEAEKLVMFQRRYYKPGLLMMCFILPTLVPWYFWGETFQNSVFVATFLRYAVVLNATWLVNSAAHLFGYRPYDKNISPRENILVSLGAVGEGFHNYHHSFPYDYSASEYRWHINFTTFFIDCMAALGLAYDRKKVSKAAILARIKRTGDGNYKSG
Experiment: Growth inhibition of humanized yeast expressing SCD1 as sole desaturase
Type: cell-based
Conditions: humanized yeast expressing SCD1
measured_quantity: IC50

{"chemical_string": "CC(C)n1ncc2cc(-c3noc(C4CCN(C(=O)CNC(=O)c5ccccc5)CC4)n3)ccc21", "measured_quantity": "IC50", "result": "41 µM"}
{"chemical_string": "COc1ccc(-c2noc(CCNC(=O)CNC(=O)c3ccccc3)n2)cc1OC", "measured_quantity": "IC50", "result": "> 45 µM"}
{"chemical_string": "COc1ccc(-c2noc(C3CCN(C(=O)[C@H]4CC(=O)N(c5ccccc5)C4)CC3)n2)cc1OC", "measured_quantity": "IC50", "result": "> 45 µM"}
{"chemical_string": "Cn1c(=O)n(C)c2cc(-c3noc(C4CCN(C(=O)[C@@H](CO)NC(=O)c5ccccc5)CC4)n3)ccc21", "measured_quantity": "IC50", "result": "41 µM"}
{"chemical_string": "O=C(CNC(=O)c1ccccc1)NCCc1nc(-c2ccccc2)no1", "measured_quantity": "IC50", "result": "> 45 µM"}
{"chemical_string": "CC1(C)CC(=O)c2c(O)cc(OCC(=O)NCCc3nc(-c4ccccc4)no3)cc2O1", "measured_quantity": "IC50", "result": "> 45 µM"}
{"chemical_string": "CCN(Cc1nc(-c2ccc3c(c2)N(CC)C(=O)CO3)no1)C(=O)Cc1cccc2ccccc12", "measured_quantity": "IC50", "result": "> 45 µM"}
{"chemical_string": "CCNCc1nc(-c2ccc3c(c2)N(CC)C(=O)CO3)no1", "measured_quantity": "IC50", "result": "> 45 µM"}

---

Molecular target: Ole1 (Saccharomyces cerevisiae, UniProt P21147)
Construct: expressed in transfected cells; host or cells: S. cerevisiae ole1Δ strain (W303 pdr1Δ pdr3Δ background), plasmid pRS316 with TDH3 promoter and CYC1 terminator
Sequence (P21147 1-510): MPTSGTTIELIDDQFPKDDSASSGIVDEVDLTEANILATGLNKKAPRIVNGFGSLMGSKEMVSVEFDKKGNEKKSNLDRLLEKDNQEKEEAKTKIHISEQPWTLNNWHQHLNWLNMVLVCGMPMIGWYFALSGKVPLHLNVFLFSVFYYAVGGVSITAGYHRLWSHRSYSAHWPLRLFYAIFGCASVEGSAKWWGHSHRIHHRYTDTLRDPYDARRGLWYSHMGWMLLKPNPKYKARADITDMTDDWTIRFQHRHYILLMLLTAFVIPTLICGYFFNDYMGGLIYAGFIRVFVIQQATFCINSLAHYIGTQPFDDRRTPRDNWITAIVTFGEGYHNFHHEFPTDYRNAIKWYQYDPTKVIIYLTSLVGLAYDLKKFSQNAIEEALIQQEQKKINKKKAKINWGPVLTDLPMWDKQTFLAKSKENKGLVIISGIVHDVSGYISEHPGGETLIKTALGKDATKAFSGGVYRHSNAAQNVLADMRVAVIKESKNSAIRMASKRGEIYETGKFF
Experiment: Growth inhibition of yeast expressing Ole1 as sole desaturase
Assay type: cell-based
Details: yeast expressing Ole1 as sole desaturase

{"compound": "COc1cccc(-c2noc(C3CCN(C(=O)[C@@H]4CC(=O)N(c5ccc(C)c(C)c5)C4)CC3)n2)c1 (single isomer, unassigned)", "OLE1 % Max Inhibition [%]": 105.31}
{"compound": "COc1ccc(-c2noc(C3CCN(C(=O)[C@H]4CC(=O)N(c5ccc(C)c(C)c5)C4)CC3)n2)cc1OC (single isomer, unassigned)", "OLE1 % Max Inhibition [%]": 85.79}
{"compound": "COc1ccc(-c2noc(C3CCN(C(=O)[C@H]4CC(=O)N(c5ccccc5)C4)CC3)n2)cc1OC", "OLE1 % Max Inhibition [%]": 4.02}
{"compound": "CCN1C(=O)CN(C)c2ccc(-c3noc(C4CCN(C(=O)CNC(=O)c5ccccc5)CC4)n3)cc21", "OLE1 % Max Inhibition [%]": 6.6}
{"compound": "COc1ccc(-c2noc(C3CCN(C(=O)[C@@H]4CC(=O)N(c5ccccc5)C4)CC3)n2)cc1OC", "OLE1 % Max Inhibition [%]": 99.71}
{"compound": "Cc1ccc(-c2noc(C3CCN(C(=O)C4CC(=O)N(c5ccc(C)c(C)c5)C4)CC3)n2)cc1 (stereo not drawn)", "OLE1 % Max Inhibition [%]": 71.50}
{"compound": "Cc1nn(C)c2cc(-c3nsc(C4CCN(C(=O)CNC(=O)c5cccc(C#N)c5)CC4)n3)ccc12", "OLE1 % Max Inhibition [%]": 9.0}
{"compound": "Cc1nn(C)c2cc(-c3noc(C4CCN(C(=O)OC(C)(C)C)CC4)n3)ccc12", "OLE1 % Max Inhibition [%]": 79.7}
{"compound": "COc1ccc(-c2noc(C3CCN(C(=O)[C@@H]4CC(=O)N(c5ccc(C)c(C)c5)C4)CC3)n2)cc1OC", "OLE1 % Max Inhibition [%]": 9.74}

---

Some compounds, each annotated with its measured IC50.
Biological target: SCD5 (Homo sapiens, UniProt Q86SK9)
Construct: host or cells: S. cerevisiae ole1Δ strain, plasmid pRS316 with TDH3 promoter and CYC1 terminator
Sequence (Q86SK9 1-330): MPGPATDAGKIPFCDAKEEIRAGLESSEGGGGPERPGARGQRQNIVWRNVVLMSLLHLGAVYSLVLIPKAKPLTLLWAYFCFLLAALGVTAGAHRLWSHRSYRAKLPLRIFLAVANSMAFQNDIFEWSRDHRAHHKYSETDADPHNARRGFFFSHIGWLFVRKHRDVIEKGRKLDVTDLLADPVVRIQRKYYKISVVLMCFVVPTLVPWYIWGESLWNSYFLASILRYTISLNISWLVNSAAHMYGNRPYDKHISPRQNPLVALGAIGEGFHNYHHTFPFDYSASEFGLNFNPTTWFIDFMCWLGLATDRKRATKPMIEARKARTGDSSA
Assay: Growth inhibition of humanized yeast expressing SCD5 as sole desaturase
Assay type: cell-based
Details: humanized yeast expressing human SCD5

{"compound": "CC(C)n1ncc2ccc(N3CC4(CCN(C(=O)OC(C)(C)C)CC4)C3)cc21", "IC50": "3.39 µM"}
{"compound": "O=C(C1CC(=O)N(c2cccc(Cl)c2)C1)N1CCC(c2nc(Cl)no2)CC1 (centres unmarked)", "IC50": "≥ 45 µM"}
{"compound": "Cc1nn(C)c2cc(-c3nsc(C4CCN(C(=O)CNC(=O)c5cccc(C#N)c5)CC4)n3)ccc12", "IC50": "> 45 µM"}
{"compound": "N#Cc1cccc(N2CC(C(=O)N3CCC(c4nc(Cl)no4)CC3)CC2=O)c1 (centres unmarked)", "IC50": "≥ 45 µM"}
{"compound": "CC(C)n1ncc2ccc(-c3nc(C4CCN(C(=O)c5cccc(F)c5)CC4)no3)cc21", "IC50": "44.3 µM"}
{"compound": "Cc1nn(C)c2cc(-c3noc(C4CCN(C(=O)OC(C)(C)C)CC4)n3)ccc12", "IC50": "> 45 µM"}
{"compound": "CCN1C(=O)CN(C)c2ccc(-c3noc(C4CCN(C(=O)CNC(=O)c5ccccc5)CC4)n3)cc21", "IC50": "> 45 µM"}
{"compound": "CC(C)n1ncc2ccc(-c3noc(N4CCN(C(=O)OC5CC5)CC4)n3)cc21", "IC50": "0.445 µM"}
{"compound": "O=C(c1ccccc1)N1CCC(c2nc(Cl)no2)CC1", "IC50": "≥ 45 µM"}
{"compound": "Cc1nn(C)c2cc(-c3noc(C4CCN(C(=O)CNC(=O)c5ccc(Cl)cc5)CC4(F)F)n3)ccc12 (centres unmarked)", "IC50": "0.885 µM"}
{"compound": "Cc1noc(N2CCC(c3nc(-c4ccc5c(C)nn(C)c5c4)no3)CC2)n1", "IC50": "≥ 45 µM"}
{"compound": "CC(C)n1ncc2ccc(-c3noc(C4CCNCC4)n3)cc21", "IC50": "> 45 µM"}
{"compound": "O=C([C@H]1CC(=O)N(c2ccccc2)C1)N1CCC(c2nc(N3CC4(COC4)C3)no2)CC1", "IC50": "≥ 45 µM"}
{"compound": "CC1=NN(C)C2C=C(c3noc([C@H]4CC[C@H](O)CC4)n3)C=CC12 (some centres unmarked)", "IC50": "> 45 µM"}
